Molecular target: T1, serum purified human Complement Factor D (human, UniProt P00746 26-253)
T1 construct: Serum purified protein flowed over the captured antibodies; also called CFD; human CFD
T1 sequence (P00746 26-253): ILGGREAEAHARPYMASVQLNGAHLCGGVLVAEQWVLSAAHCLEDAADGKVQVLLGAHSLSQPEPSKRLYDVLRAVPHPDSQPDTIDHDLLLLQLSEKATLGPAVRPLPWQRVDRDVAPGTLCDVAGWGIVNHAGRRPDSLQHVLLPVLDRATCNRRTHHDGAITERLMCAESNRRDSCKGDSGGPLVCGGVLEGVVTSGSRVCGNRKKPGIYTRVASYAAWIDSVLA
Test: SPR Biacore, antibody on protein A chip, single cycle kinetics, 25 C
PROPERTY_LABEL: Kd
Mention the unit after the number when you answer.

Look up Kd for this binder: 34I54I59D84S / 54G101V (antibody, V domains shown, also called 34I54I59D845 / 54G101V) VH: EVQLVESGGGLVQPGGSLRLSCAASGYTFTDYYINWVRQAPGKGLEWIGDINPITGDTDYNADFKRRFTFSLDTSKSTAYLQMSSLRAEDTAVYYCTREGPSFAYWGQGTLVTVSS VL: DIQLTQSPSSLSASVGDRVTITCRSSQTIVHSNGDTYLEWYQQKPGKAPNLLIGKVSNRFSGVPSRFSGSGSGTDFTLTISSLQPEDFATYYCFQGSHVPVTFGQGTKVEIK
6.83 pM
